# Assay remarks: chemical genetic growth profiling, strain panel (AID 1159580);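 further: tested at 20 µM; growth read once vehicle control cultures reached saturation at 30 °C; 1 = growth at the plate median or of vehicle wells; lower values mean less growth of the strain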
# Measurement context: S. cerevisiae deletion strains, growth OD, locus YDR195W, strain ref2
In all, about 5,500 compounds went through this assay and about 2,000 (36%) were called active. About 18% were inconclusive and are not listed. Some of the results follow.
Answer each item with its documented normalized growth.

{"columns": ["Molecule", "normalized growth"],
 "data": [
  ["CCOP(=S)(OCC)SCn1c(=O)oc2cc(Cl)ccc21", "1.04 (inactive)"],
  ["O=C(O)c1ccccc1Nc1cccc(C(F)(F)F)c1", "0.998 (inactive)"],
  ["O=C1O[C@H](C(O)CO)C(O)=C1O (stereo partly specified)", "0.991 (inactive)"],
  ["NC(=NCCC[C@H](N)C(=O)O)NC(CCC(=O)O)C(=O)O (stereo partly specified)", "0.974 (inactive)"],
  ["C[C@H]1[C@H]2CCC3C4CC=C5C[C@@H](N(C)C)CC[C@]5(C)C4CC[C@@]32CN1C (stereo partly specified)", "0.945 (inactive)"]
]}

Note: attention shifts to another entry.
Q) I am curious: what normalized growth value has been reported for CC(=O)c1c(O)c(C)c(O)c2c1OC1=CC(=O)C(C(C)=O)C(=O)C12C (stereo unspecified) ?
A) 0.799 (active)
